Origin of values: paper PMC4551934

Molecular target: KpnI restriction endonuclease (UniProt P25237 1-218)
Sequence (P25237 whole entry): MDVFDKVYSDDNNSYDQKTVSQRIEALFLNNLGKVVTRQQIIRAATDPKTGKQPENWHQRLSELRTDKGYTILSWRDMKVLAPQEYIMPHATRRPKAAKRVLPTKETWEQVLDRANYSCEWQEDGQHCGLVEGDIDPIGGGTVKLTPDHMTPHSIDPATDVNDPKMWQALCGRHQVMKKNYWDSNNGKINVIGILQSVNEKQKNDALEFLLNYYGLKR
Assay: cleavage inhibition; 20 nM DNA probe N10; Kd EMSA: 10 mM Bis-Tris-Propane-HCl pH 7, 10 mM MgCl2, 100 ug/ml BSA, 37 C, 30 min; screen EMSA in selection buffers, 37 C: 10 mM HEPES pH 7.5 with 400 mM NaCl/
Conditions: protein: commercial; chain copies: 2; label: 32P; hairpin
Field: IC50. Provide a value for each of the binders that follow.
Answers are plain numbers, in nM.

IC50 for anti-KpnI aptamer 29 (16/23/29) (structured_RNA) RNA: GGGAUAUCCCUACAUGAUAAUCGGGUGAGUAAGGCCUAAACAUCAUGCAUGAAGCGUUCCAUAUUUUU is 153

Lookup result for anti-KpnI aptamer 30 (structured_RNA) RNA: GGGAUAUCCUUCAUGAUUCGGAAAAGCGUAACCGCGGCCGAUCAUGCAUGAAGCGUUCCAUAUUUUU ; measured IC50: 23.1

// switching to the query binder
The measured IC50 associated with anti-KpnI aptamer 20 (structured_RNA) RNA: GGGAUAUCCUUCAUGAUUCGGAAAAGCGUAACCGCGGCCAAUCAUGCAUGAAGCGUUCCAUAUUUUU reads 36.1
